testProtocol: Metabolic stability in human liver microsomes assessed as compound turnover after 0.25 hrs by LC/MS/MS analysis
Parameters: dose or concentration left out as unconfirmed
valueKind: turnover at 0.25 h (%)

Study these solved cases before continuing.
compoundString: O=C(c1ccccc1F)N1CCC(CCc2ccc(F)cc2F)CC1
turnover at 0.25 h (%): 99
--
compoundString: O=S(=O)(c1ccccc1)c1ccc(CCc2ccc(F)cc2F)cc1
turnover at 0.25 h (%): 84
--
compoundString: O=S(=O)(c1ccccc1)c1ccc(/C=C/c2ccc(F)cc2F)cc1
turnover at 0.25 h (%): 33
--
compoundString: NC(=O)c1cccc(S(=O)(=O)c2ccc(/C=C/c3ccc(F)cc3F)cc2)c1
turnover at 0.25 h (%): 3
--
compoundString: C[C@H](O)c1ccccc1S(=O)(=O)c1ccc(/C=C/c2ccc(F)cc2)cc1
turnover at 0.25 h (%): 45

[A] NC(=O)c1ccccc1S(=O)(=O)c1ccc(/C=C/c2ccc(F)cc2F)cc1
[B] NC(=O)c1ccc(S(=O)(=O)c2ccc(/C=C/c3ccc(F)cc3F)cc2)cc1
*Q* Between A and B , which one shows the smaller turnover at 0.25 h number? Pick one; state its label.
*A* B
(B: 0%, A: 15.8%)

---

testProtocol: Half life in Sprague-Dawley rat at 0.1 mg/kg, iv and 1 mg/kg, po
Type: ADME, organism-based
experimentalSetup: in vivo
valueKind: half-life (min)

[P] C[C@H](O)c1ccccc1S(=O)(=O)c1ccc(/C=C/c2ccc(F)cc2)cc1
[Q] NC(=O)c1ccccc1S(=O)(=O)c1ccc(/C=C/c2ccc(F)cc2F)cc1
*Q* Would you kindly point out which of P and Q has the smaller half-life figure? Response format: the label of the selected entry.
*A* P

---

testProtocol: Drug level in rat hepatic portal vein plasma at 5 mg/kg, po administered with methocel suspension by electrospray mass spectrometry
Type: ADME, organism-based
Parameters: dose 5 mg/kg, route oral
valueKind: AUC (µM·h)
Note: unit µM·h is implicit; provide only the numeric part.

*Q* Give the measured AUC for O=S(=O)(c1ccccc1)c1ccc(/C=C/c2ccc(F)cc2F)cc1
*A* 0.46

---

testProtocol: Metabolic stability in rat liver microsomes assessed as compound remaining […] after 0.25 hrs by LC/MS/MS analysis
Format: ADME, Microsome
experimentalSetup: read-out: Stability
valueKind: remaining at 0.25 h (%)

[a] NC(=O)c1ccccc1S(=O)(=O)c1ccc(/C=C/c2ccc(F)cc2F)cc1
[b] C[C@H](O)c1ccccc1S(=O)(=O)c1ccc(/C=C/c2ccc(F)cc2)cc1
*Q* Which has the higher remaining at 0.25 h, a or b ? // caller expects the label of the chosen entry
*A* b

---

testProtocol: Plasma clearance in Sprague-Dawley rat at 0.1 mg/kg, iv and 1 mg/kg, po
Type: ADME, organism-based
valueKind: clearance (mL/min/kg)

[1] C[C@H](O)c1ccccc1S(=O)(=O)c1ccc(/C=C/c2ccc(F)cc2)cc1
[2] NC(=O)c1ccccc1S(=O)(=O)c1ccc(/C=C/c2ccc(F)cc2F)cc1
*Q* Looking at recorded values for clearance, does 1 or 2 come in lower? # respond with the chosen item's label
*A* 2

---

testProtocol: Half life in rhesus monkey at 0.1 mg/kg, iv and 1 mg/kg, po
Format: ADME, organism-based, Macaca mulatta
experimentalSetup: in vivo
valueKind: half-life (h)

[I] C[C@H](O)c1ccccc1S(=O)(=O)c1ccc(/C=C/c2ccc(F)cc2)cc1
[II] NC(=O)c1ccccc1S(=O)(=O)c1ccc(/C=C/c2ccc(F)cc2F)cc1
*Q* Between I and II , whose measured half-life reads higher? Choose, then provide that item's label.
*A* II
(II: 85 h, I: 2.13 h)
